- METHOD SUMMARY: Antimelanogenic activity in mouse B16-4A5 cells assessed as inhibition of theophylline-induced melanin production at 0.3 uM after 72 hrs by spectrophotometry relative to control
- Type: functional
- CONDITION LABEL: B16-4A5, 72 h
Listed here: items and their measured inhibition at 0.3 µM.

- MOLECULE: "CC(=O)O[C@H](CCc1ccc(O)c(O)c1)C[C@H](O)CCc1ccc(O)cc1"
  inhibition at 0.3 µM: "15.1%"
- MOLECULE: "O=C(/C=C/C=C/c1ccc(O)cc1)CCc1ccc(O)cc1"
  inhibition at 0.3 µM: "31.7%"
- MOLECULE: "CC(=O)O[C@H](CCc1ccc(O)cc1)C[C@@H](CCc1ccc(O)c(O)c1)OC(C)=O"
  inhibition at 0.3 µM: "6.3%"
- MOLECULE: "COc1cc(CC[C@@H](O)C[C@@H](O)CCc2ccc(O)cc2)cc(OC)c1O"
  inhibition at 0.3 µM: "23.2%"
- MOLECULE: "COc1cc(CC[C@H](O)C[C@H](O)CCc2cc(OC)c(O)c(OC)c2)ccc1O"
  inhibition at 0.3 µM: "43.2%"
- MOLECULE: "COc1cc(CC[C@@H](O)CC/C=C/c2ccc(O)cc2)ccc1O"
  inhibition at 0.3 µM: "8.9%"
- MOLECULE: "O=C(/C=C/C=C/c1ccc(O)c(O)c1)CCc1ccc(O)cc1"
  inhibition at 0.3 µM: "37.8%"
- MOLECULE: "Oc1ccc(CC[C@H](O)C[C@H](O)CCc2ccc(O)c(O)c2)cc1"
  inhibition at 0.3 µM: "-3.7%"
- MOLECULE: "COc1cc(CC[C@@H](O)CC(=O)CCc2ccc(O)cc2)ccc1O"
  inhibition at 0.3 µM: "-11.9%"
- MOLECULE: "O=C(CC/C=C/c1ccc(O)cc1)CCc1ccc(O)cc1"
  inhibition at 0.3 µM: "29.9%"
- MOLECULE: "Oc1ccc(CC[C@@H](O)C[C@H](O)CCc2ccc(O)cc2)cc1 [(+)-HANNOKINOL]"
  inhibition at 0.3 µM: "20.3%"
- MOLECULE: "Oc1ccc(/C=C/CC[C@@H](O)CCc2ccc(O)cc2)cc1"
  inhibition at 0.3 µM: "47.5%"
- MOLECULE: "Oc1ccc(CC[C@@H](O)C[C@H](O)CCc2ccc(O)c(O)c2)cc1"
  inhibition at 0.3 µM: "8.9%"
- MOLECULE: "CC(=O)O[C@H](CCc1ccc(O)c(O)c1)C[C@H](O)CCc1ccc(O)c(O)c1"
  inhibition at 0.3 µM: "-9.9%"

====

- METHOD SUMMARY: Antimelanogenic activity in mouse B16-4A5 cells assessed as inhibition of theophylline-induced melanin production at 3 uM after 72 hrs by spectrophotometry relative to control
- Assay type: functional
- CONDITION LABEL: B16-4A5, 72 h

- CHEM SMILES: "O=C(/C=C/C=C/c1ccc(O)cc1)CCc1ccc(O)cc1"
  inhibition at 3 µM: "41.9%"
- CHEM SMILES: "CC(=O)O[C@H](CCc1ccc(O)c(O)c1)C[C@H](O)CCc1ccc(O)cc1"
  inhibition at 3 µM: "21.8%"
- CHEM SMILES: "Oc1ccc(CC[C@H](O)C[C@H](O)CCc2ccc(O)c(O)c2)cc1"
  inhibition at 3 µM: "-23.7%"
- CHEM SMILES: "COc1cc(CC[C@H](O)C[C@H](O)CCc2cc(OC)c(O)c(OC)c2)ccc1O"
  inhibition at 3 µM: "50.3%"
- CHEM SMILES: "Oc1ccc(CC[C@@H](O)C[C@H](O)CCc2ccc(O)c(O)c2)cc1"
  inhibition at 3 µM: "0.1%"
- CHEM SMILES: "COc1cc(CC[C@@H](O)CC/C=C/c2ccc(O)cc2)ccc1O"
  inhibition at 3 µM: "27.2%"
- CHEM SMILES: "CC(=O)O[C@H](CCc1ccc(O)cc1)C[C@@H](CCc1ccc(O)c(O)c1)OC(C)=O"
  inhibition at 3 µM: "7.3%"
- CHEM SMILES: "O=C(CC/C=C/c1ccc(O)cc1)CCc1ccc(O)cc1"
  inhibition at 3 µM: "61.4%"
- CHEM SMILES: "COc1cc(CC[C@@H](O)C[C@@H](O)CCc2ccc(O)cc2)cc(OC)c1O"
  inhibition at 3 µM: "25%"

====

- ASSAYED SYSTEM: UniProtKB O42713
- Sequence (whole entry): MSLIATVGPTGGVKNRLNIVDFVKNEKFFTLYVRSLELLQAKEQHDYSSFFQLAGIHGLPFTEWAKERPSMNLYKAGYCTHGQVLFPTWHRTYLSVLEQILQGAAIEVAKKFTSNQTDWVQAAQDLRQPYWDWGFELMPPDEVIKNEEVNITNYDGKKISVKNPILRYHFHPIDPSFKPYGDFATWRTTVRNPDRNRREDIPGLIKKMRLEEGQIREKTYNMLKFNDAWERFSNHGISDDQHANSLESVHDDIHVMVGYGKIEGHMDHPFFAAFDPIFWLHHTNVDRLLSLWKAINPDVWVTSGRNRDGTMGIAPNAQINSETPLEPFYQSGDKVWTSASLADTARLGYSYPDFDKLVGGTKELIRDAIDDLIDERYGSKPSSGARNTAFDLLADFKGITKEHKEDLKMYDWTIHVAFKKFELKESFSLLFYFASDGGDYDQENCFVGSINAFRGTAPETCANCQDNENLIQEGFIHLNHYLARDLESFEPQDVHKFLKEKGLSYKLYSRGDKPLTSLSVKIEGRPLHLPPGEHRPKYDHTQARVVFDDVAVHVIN
- METHOD SUMMARY: Inhibition of mushroom tyrosinase at 10 uM

- COMPOUND: "Oc1ccc(CC[C@H](O)C[C@H](O)CCc2ccc(O)c(O)c2)cc1"
  inhibition: "< 17%"
- COMPOUND: "O=C(CCc1ccc(O)cc1)C[C@@H](O)CCc1ccc(O)cc1"
  inhibition: "< 17%"
- COMPOUND: "COc1cc(CC[C@H](O)C[C@H](O)CCc2cc(OC)c(O)c(OC)c2)ccc1O"
  inhibition: "< 17%"
- COMPOUND: "Oc1ccc(CC[C@@H](O)C[C@H](O)CCc2ccc(O)cc2)cc1 [(+)-HANNOKINOL]"
  inhibition: "< 17%"
- COMPOUND: "O=C(/C=C/C=C/c1ccc(O)cc1)CCc1ccc(O)cc1"
  inhibition: "34.3%"

====

- METHOD SUMMARY: Cytotoxicity against mouse B16-4A5 cells assessed as cell viability at 10 uM after 70 hrs by WST-8 assay in presence of theophylline
- Type: cell-based
- CONDITION LABEL: read-out: Activity

- MOLECULE: "O=C(/C=C/C=C/c1ccc(O)cc1)CCc1ccc(O)cc1"
  viability at 70 h, 10 µM [%]: 92.3
- MOLECULE: "Oc1ccc(CC[C@H](O)C[C@H](O)CCc2ccc(O)c(O)c2)cc1"
  viability at 70 h, 10 µM [%]: 71.6
- MOLECULE: "COc1cc(CC[C@H](O)C[C@H](O)CCc2cc(OC)c(O)c(OC)c2)ccc1O"
  viability at 70 h, 10 µM [%]: 92.3
- MOLECULE: "Oc1ccc(CC[C@@H](O)C[C@H](O)CCc2ccc(O)c(O)c2)cc1"
  viability at 70 h, 10 µM [%]: 92.3
- MOLECULE: "Oc1ccc(/C=C/CC[C@@H](O)CCc2ccc(O)cc2)cc1"
  viability at 70 h, 10 µM [%]: 93
- MOLECULE: "COc1cc(CC[C@@H](O)C[C@@H](O)CCc2ccc(O)cc2)cc(OC)c1O"
  viability at 70 h, 10 µM [%]: 92.3
- MOLECULE: "CC(=O)O[C@H](CCc1ccc(O)cc1)C[C@@H](CCc1ccc(O)c(O)c1)OC(C)=O"
  viability at 70 h, 10 µM [%]: 92.3
- MOLECULE: "O=C(/C=C/C=C/c1ccc(O)c(O)c1)CCc1ccc(O)cc1"
  viability at 70 h, 10 µM [%]: 92.3
- MOLECULE: "CC(=O)O[C@H](CCc1ccc(O)c(O)c1)C[C@H](O)CCc1ccc(O)cc1"
  viability at 70 h, 10 µM [%]: 92.3
- MOLECULE: "O=C(CC/C=C/c1ccc(O)cc1)CCc1ccc(O)cc1"
  viability at 70 h, 10 µM [%]: 71.6
- MOLECULE: "Oc1ccc(CC[C@@H](O)C[C@H](O)CCc2ccc(O)cc2)cc1 [(+)-HANNOKINOL]"
  viability at 70 h, 10 µM [%]: 92.3
- MOLECULE: "CC(=O)O[C@H](CCc1ccc(O)c(O)c1)C[C@H](O)CCc1ccc(O)c(O)c1"
  viability at 70 h, 10 µM [%]: 92.3
- MOLECULE: "COc1cc(CC[C@@H](O)CC(=O)CCc2ccc(O)cc2)ccc1O"
  viability at 70 h, 10 µM [%]: 92.3
- MOLECULE: "COc1cc(CC[C@@H](O)CC/C=C/c2ccc(O)cc2)ccc1O"
  viability at 70 h, 10 µM [%]: 76
